Test system: murine gastric organoid WNT-activated (Apc fl/fl; Tp53 R172H)
test method notes: IC50 (viability, PrestoBlue) (log10 nM)
run parameters: exposure time: 72 h
Structures can show the parent of a compound that is named as a salt.
readout label: IC50 (log10 nM)
Numbers only.

Exam item: So what's the measured IC50 (log10 nM) for this one? CC[C@]1(O)C[C@H]2CN(CCc3c([nH]c4ccccc34)[C@@](C(=O)OC)(c3cc4c(cc3OC)N(C=O)[C@H]3[C@@](O)(C(=O)OC)[C@H](OC(C)=O)[C@]5(CC)C=CCN6CC[C@]43[C@@H]65)C2)C1 [Vincristine sulfate]
Marked response: 2.19

Exam item: Param item: N[C@@H](Cc1ccc(N(CCCl)CCCl)cc1)C(=O)O
Marked response: 2.26

Exam item: Same question for C=CC(=O)Nc1cc2c(Nc3ccc(F)c(Cl)c3)ncnc2cc1OCCCN1CCOCC1 please.
Marked response: 2.17

Exam item: Ok, now COc1cc(Nc2ncc3c(n2)-c2ccc(Cl)cc2C(c2c(F)cccc2OC)=NC3)ccc1C(=O)O
Marked response: 3.02

Exam item: Repeat for the following compound: COc1cc2ncnc(Nc3ccc(F)c(Cl)c3)c2cc1OCCCN1CCOCC1
Marked response: 2.38

Exam item: // repeat for C[C@H](NC(=O)/C(C#N)=C/c1cccc(Br)n1)c1ccccc1 and report
Marked response: 3.26

Exam item: CC(C)Nc1cc(-c2c[nH]c(C(=O)N[C@H](CO)c3cccc(Cl)c3)c2)c(Cl)cn1 , same question.
Marked response: 2.96

Exam item: Please give the result for CC(C)C[C@H](NC(=O)CNC(=O)c1cc(Cl)ccc1Cl)B(O)O too.
Marked response: 2.6

Exam item: Next entry: CN1CCN(c2ccc3nc(-c4c(N)c5c(F)cccc5[nH]c4=O)[nH]c3c2)CC1
Marked response: 3.41

Exam item: Now try Nc1ncn([C@H]2C[C@H](O)[C@@H](CO)O2)c(=O)n1 .
Marked response: 3.34

Give me IC50 (log10 nM) for each of these compounds, listed below.
1. S=P(N1CC1)(N1CC1)N1CC1
2. Cc1[nH]c2ccccc2c1CCNCc1ccc(/C=C/C(=O)NO)cc1
3. CCN1CCN(Cc2ccc(Nc3ncc(F)c(-c4cc(F)c5nc(C)n(C(C)C)c5c4)n3)nc2)CC1
4. CO[C@H]1C[C@@H]2CC[C@@H](C)[C@@](O)(O2)C(=O)C(=O)N2CCCC[C@H]2C(=O)O[C@H]([C@H](C)C[C@@H]2CC[C@@H](OCCO)[C@H](OC)C2)CC(=O)[C@H](C)/C=C(\C)[C@@H](O)[C@@H](OC)C(=O)[C@H](C)C[C@H](C)/C=C/C=C/C=C/1C
5. Nc1ncn([C@@H]2O[C@H](CO)[C@@H](O)[C@H]2O)c(=O)n1

Marked response:
[4.16, 3.02, 2.47, 3.26, 3.58]

For every record below, what is its IC50 (log10 nM)?
1. C=CC(=O)Nc1cc(Nc2nccc(-c3cn(C)c4ccccc34)n2)c(OC)cc1N(C)CCN(C)C
2. CCN(CC)CCNC(=O)c1c(C)[nH]c(/C=C2\C(=O)Nc3ccc(F)cc32)c1C
3. Cc1cc(C)c(/C=C2\C(=O)Nc3ccccc32)[nH]1

Marked response:
1. 2.46
2. 3.94
3. 3.77

For every item below, please supply its IC50 (log10 nM).
1. CNC(=O)[C@@H](NC(=O)[C@H](CC(C)C)[C@H](O)C(=O)NO)C(C)(C)C
2. CCc1cnn2c(NCc3ccc[n+]([O-])c3)cc(N3CCCC[C@H]3CCO)nc12
3. O=C1c2c(O)ccc(O)c2C(=O)c2c(NCCNCCO)ccc(NCCNCCO)c21 [Mitoxantrone dihydrochloride]
4. CCNC(=O)C[C@@H]1N=C(c2ccc(Cl)cc2)c2cc(OC)ccc2-n2c(C)nnc21
5. Nc1ccn([C@@H]2O[C@H](CO)[C@@H](O)C2(F)F)c(=O)n1
6. COC(=O)C[C@](O)(CCCC(C)(C)O)C(=O)O[C@@H]1C(OC)=C[C@]23CCCN2CCc2cc4c(cc2[C@H]13)OCO4

Marked response:
1. 4.02
2. 4.28
3. 3.38
4. 1.54
5. 1.74
6. 0.956

The following compounds each have a reported value; give each one's IC50 (log10 nM).
1. CC(C)(C)c1cc(NC(=O)Nc2ccc(-c3cn4c(n3)sc3cc(OCCN5CCOCC5)ccc34)cc2)no1
2. O[C@@H](COc1cccc2ncccc12)CN1CCN([C@@H]2c3ccccc3[C@@H]3[C@H](c4ccccc42)C3(F)F)CC1 [Zosuquidar trihydrochloride]

Marked response:
1. 2.01
2. 4.03
